outcome measure: IC50 (nM)
Quick note: give the figure in nM, leave out the unit.

Find IC50 for CN(Cc1ccccc1)c1ccc2c(C3CCC(=O)NC3=O)nn(C)c2c1 (stereo not drawn) on Protein cereblon/DNA damage-binding protein 1 (Homo sapiens, UniProt Q96SW2) and write it down.
70

Find IC50 for Cn1nc(C2CCC(=O)NC2=O)c2ccc(N3CCCC(F)(F)C3)cc21 (stereo not drawn) on Protein cereblon/DNA damage-binding protein 1 (Homo sapiens, UniProt Q96SW2) and write it down.
110

Find IC50 for COc1cc2c(C3CCC(=O)NC3=O)nn(C)c2cc1N1CCC(N(C)C(=O)OC(C)(C)C)CC1 (stereo not drawn) on Protein cereblon/DNA damage-binding protein 1 (Homo sapiens, UniProt Q96SW2) and write it down.
28700

Find IC50 for Cn1nc(C2CCC(=O)NC2=O)c2ccc(NC3CCCCC3)cc21 (stereo not drawn) on Protein cereblon/DNA damage-binding protein 1 (Homo sapiens, UniProt Q96SW2) and write it down.
1020

Find IC50 for Cn1nc(C2CCC(=O)NC2=O)c2ccc(N[C@H]3CCN(C(=O)OC(C)(C)C)C3)cc21 (stereo partly drawn) on Protein cereblon/DNA damage-binding protein 1 (Homo sapiens, UniProt Q96SW2) and write it down.
50

Find IC50 for CN(C(=O)OC(C)(C)C)C1CCN(c2ccc(C3CCC(=O)NC3=O)cc2)CC1 (stereo not drawn) on Protein cereblon/DNA damage-binding protein 1 (Homo sapiens, UniProt Q96SW2) and write it down.
2440

Find IC50 for CN(C(=O)OC(C)(C)C)C1CCN(c2ccc3c(cnn3C3CCC(=O)NC3=O)c2)CC1 (stereo not drawn) on Protein cereblon/DNA damage-binding protein 1 (Homo sapiens, UniProt Q96SW2) and write it down.
1490

Find IC50 for Cn1nc(C2CCC(=O)NC2=O)c2ccc(NC3CCN(C(=O)OC(C)(C)C)CC3)cc21 (stereo not drawn) on Protein cereblon/DNA damage-binding protein 1 (Homo sapiens, UniProt Q96SW2) and write it down.
70

====

Molecular target: Protein cereblon/DNA damage-binding protein 1 (Homo sapiens) (UniProt Q96SW2+Q16531)
Settings: Sf9
outcome measure: Tm (°C)
Quick note: give the figure in °C, leave out the unit.

Name the recorded Tm of the item CN(C(=O)OC(C)(C)C)C1CCN(c2ccc3c(c2)c(C2CCC(=O)NC2=O)nn3C)CC1 (centres undefined) in your answer.
62.5

Name the recorded Tm of the item Cn1nc(C2CCC(=O)NC2=O)c2ccc(NC3CCCN(C(=O)OC(C)(C)C)CC3)cc21 (centres undefined) in your answer.
66.2

Name the recorded Tm of the item Cn1nc(C2CCC(=O)NC2=O)c2ccc(N3CCC4(CC3)OCCO4)cc21 (centres undefined) in your answer.
66.5

Name the recorded Tm of the item COc1cc2c(C3CCC(=O)NC3=O)nn(C)c2cc1N1CCC(N(C)C(=O)OC(C)(C)C)CC1 (centres undefined) in your answer.
62.1

Name the recorded Tm of the item CN(C(=O)OC(C)(C)C)C1CCN(c2cccc3c(C4CCC(=O)NC4=O)nn(C)c23)CC1 (centres undefined) in your answer.
64.9

Name the recorded Tm of the item CN(C(=O)OC(C)(C)C)C1CCN(c2ccc(C3CCC(=O)NC3=O)cc2)CC1 (centres undefined) in your answer.
63.8

Name the recorded Tm of the item Cn1nc(C2CCC(=O)NC2=O)c2ccc(N3CCCC(F)(F)C3)cc21 (centres undefined) in your answer.
65.9

Name the recorded Tm of the item O=C1CCC(N2C(=O)c3ccccc3C2=O)C(=O)N1 (centres undefined) [THALIDOMIDE] in your answer.
64

Name the recorded Tm of the item Cn1nc(C2CCC(=O)NC2=O)c2ccc(N3CCC4(CCN(C(=O)OC(C)(C)C)C4)C3)cc21 (centres undefined) in your answer.
66.7

Name the recorded Tm of the item CN(C(=O)OC(C)(C)C)C1CCN(c2ccc3c(C4CCC(=O)NC4=O)nn(C)c3c2)CC1 (centres undefined) in your answer.
66.1

Name the recorded Tm of the item CC(C)(C)OC(=O)N1CCC(CNc2ccc(C3CCC(=O)NC3=O)cc2)CC1 (centres undefined) in your answer.
63.8

Name the recorded Tm of the item CN(C(=O)OC(C)(C)C)C1CCN(c2cccc(C3CCC(=O)NC3=O)c2)CC1 (centres undefined) in your answer.
62.3

Name the recorded Tm of the item CN(C(=O)OC(C)(C)C)C1CCN(c2ccc3c(ccn3C3CCC(=O)NC3=O)n2)CC1 (centres undefined) in your answer.
64.1

Name the recorded Tm of the item Cn1nc(C2CCC(=O)NC2=O)c2ccc(NC3CC4(C3)CN(C(=O)OC(C)(C)C)C4)cc21 (centres undefined) in your answer.
66.9

Name the recorded Tm of the item CN(C(=O)OC(C)(C)C)C1CCN(c2ccc3c(C4(C)CCC(=O)NC4=O)nn(C)c3c2)CC1 (centres undefined) in your answer.
63.8

Name the recorded Tm of the item Cn1nc(C2CCC(=O)NC2=O)c2ccc(N3CCOCC3)cc21 (centres undefined) in your answer.
66.2

Name the recorded Tm of the item CN(Cc1ccccc1)c1ccc2c(C3CCC(=O)NC3=O)nn(C)c2c1 (centres undefined) in your answer.
66.3

Name the recorded Tm of the item Cn1nc(C2CCC(=O)NC2=O)c2ccc(N[C@H]3CCN(C(=O)OC(C)(C)C)C3)cc21 (some centres undefined) in your answer.
66.8

Name the recorded Tm of the item CC(C)(C)OC(=O)N1CCC(CNc2ccc3c(ccn3C3CCC(=O)NC3=O)n2)CC1 (centres undefined) in your answer.
64.5
